The origin of these recorded values is patent EP4806435A1.

- Procedure text: Phase 1 clinical trial: plasma pharmacokinetics
- Assay type: in vivo, human
- Applied conditions: human, plasma, oral, 360 mg, Cycle 1, Day 1; 360 mg QD; cut-off March 2024; read-out: Cmax
Measure: Cmax

Structure smiles	Measure	Observed
CC1(C)Oc2cc(Cl)ccc2[C@@H]2OCC3(CCN(CCn4ccnc4)CC3)C[C@H]21	Cmax	359 ng/mL

====

- Procedure text: Phase 1 clinical trial: plasma pharmacokinetics
- Format: in vivo, human
- Applied conditions: human, plasma, oral, 180 mg, Cycle 2 Day 1; 180 mg, QD; cut-off April 2023; read-out: Cmax (mean)
- Method: Summary statistics based on preliminary data were obtained for the pharmacokinetics of Compound 1 in patients receiving once-daily doses ranging from 20 mg to 240 mg (Table 5). The mean plasma concentration-time curves of Compound 1 in the once-daily dose groups ranging from 20 mg to 240 mg are shown in Figure 11. In this study, one cycle consists of 28 days, and Cycle 1 Day 1 refers to Day 1 of the first cycle. […] Accumulation was observed after repeated administration. […]

Molecule	Unit spec	Cmax
CC1(C)Oc2cc(Cl)ccc2[C@@H]2OCC3(CCN(CCn4ccnc4)CC3)C[C@H]21 [Compound 1]	ng/mL	287
